Target: BRG-1 (Homo sapiens, UniProt P51532)
Construct: made in house; host or cells: High Five insect cells
Sequence (P51532 whole entry): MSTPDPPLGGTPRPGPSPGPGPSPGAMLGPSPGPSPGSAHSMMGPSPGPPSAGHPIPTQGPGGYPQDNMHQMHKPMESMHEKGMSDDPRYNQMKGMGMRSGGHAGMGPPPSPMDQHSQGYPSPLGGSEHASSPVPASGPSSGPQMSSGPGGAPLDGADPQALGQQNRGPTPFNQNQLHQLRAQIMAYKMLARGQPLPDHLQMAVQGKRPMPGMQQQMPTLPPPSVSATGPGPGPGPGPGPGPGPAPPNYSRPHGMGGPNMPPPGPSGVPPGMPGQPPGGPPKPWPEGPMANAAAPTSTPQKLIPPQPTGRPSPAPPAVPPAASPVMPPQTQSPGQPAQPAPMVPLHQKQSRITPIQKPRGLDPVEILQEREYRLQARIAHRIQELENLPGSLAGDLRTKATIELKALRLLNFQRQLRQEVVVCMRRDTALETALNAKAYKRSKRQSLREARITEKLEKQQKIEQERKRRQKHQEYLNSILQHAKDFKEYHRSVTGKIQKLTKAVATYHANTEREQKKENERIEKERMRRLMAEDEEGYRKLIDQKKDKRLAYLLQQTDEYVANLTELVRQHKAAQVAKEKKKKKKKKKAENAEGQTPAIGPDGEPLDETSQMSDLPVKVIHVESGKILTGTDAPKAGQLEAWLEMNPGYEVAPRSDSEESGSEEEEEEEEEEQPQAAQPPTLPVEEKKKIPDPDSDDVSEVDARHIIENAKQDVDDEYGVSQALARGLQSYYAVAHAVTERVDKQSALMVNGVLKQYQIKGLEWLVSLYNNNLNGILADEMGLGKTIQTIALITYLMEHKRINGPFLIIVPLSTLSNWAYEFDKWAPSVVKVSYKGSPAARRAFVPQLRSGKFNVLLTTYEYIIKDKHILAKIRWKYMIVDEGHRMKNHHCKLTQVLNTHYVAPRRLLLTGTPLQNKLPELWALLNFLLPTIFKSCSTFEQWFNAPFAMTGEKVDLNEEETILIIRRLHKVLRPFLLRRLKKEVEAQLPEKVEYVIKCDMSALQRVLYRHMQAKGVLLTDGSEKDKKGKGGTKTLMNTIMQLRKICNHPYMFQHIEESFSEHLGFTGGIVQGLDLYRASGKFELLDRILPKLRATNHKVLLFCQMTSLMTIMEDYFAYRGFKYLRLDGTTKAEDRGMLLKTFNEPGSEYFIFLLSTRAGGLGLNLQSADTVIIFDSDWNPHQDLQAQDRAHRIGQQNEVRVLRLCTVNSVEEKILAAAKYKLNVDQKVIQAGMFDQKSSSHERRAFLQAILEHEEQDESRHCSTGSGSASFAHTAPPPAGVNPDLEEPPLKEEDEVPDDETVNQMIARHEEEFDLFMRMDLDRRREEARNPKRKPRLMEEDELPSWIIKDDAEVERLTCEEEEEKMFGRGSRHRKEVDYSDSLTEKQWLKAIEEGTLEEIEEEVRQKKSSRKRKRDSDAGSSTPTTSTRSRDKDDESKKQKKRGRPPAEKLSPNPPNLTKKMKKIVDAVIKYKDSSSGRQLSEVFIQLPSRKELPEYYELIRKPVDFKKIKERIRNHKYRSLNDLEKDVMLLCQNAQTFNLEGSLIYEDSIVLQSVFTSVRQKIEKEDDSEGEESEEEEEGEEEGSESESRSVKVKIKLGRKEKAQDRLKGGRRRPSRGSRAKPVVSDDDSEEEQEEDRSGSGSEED
Test: ATPase catalytic activity of BRG-1, ADP-Glo in vitro biochemical assay
Conditions: ATPase catalytic activity, ADP-Glo; 30 nM BRG-1, 400 μM ATP; read-out: BRG1 IC50
Procedure: The ATPase catalytic activity of BRM or BRG-1 was measured by an in vitro biochemical assay using ADP-Glo™ (Promega, V9102). The ADP-Glo™ kinase assay is performed in two steps once the reaction is complete. The first step is to deplete any unconsumed ATP in the reaction. The second step is to convert the reaction product ADP to ATP, which will be utilized by the luciferase to generate luminesce and be detected by a luminescence reader, such as Envision. […]
measurement kind: IC50 (nM)

# compound, measurement
data = [
    ("O=C(NCc1cc2nc(N3CCC4(CC4)c4cccnc43)ccc2cn1)c1ccc2c(c1)S(=O)(=O)CCOC2 [Compound 600]", 176),
    ("Cc1cc2c(nc1C1CC1)N(c1ccc3cnc(CNC(=O)c4ccc5c(c4)S(=O)(=O)CCOC5)cc3n1)CCC2 [Compound 632]", 1130),
    ("CO[C@@H]1CN(c2cccc(-c3ccc4cnc(CNC(=O)c5ccc6c(c5)S(=O)(=O)CCOC6)cc4n3)n2)C[C@@H]1F [Compound 333]", 227),
]

(I) C[C@H]1COCc2ccc(C(=O)NCc3cc4nc(-c5cccc(OC(F)(F)F)n5)ccc4cn3)cc2S1(=O)=O [Compound 388]
(II) C[C@@H]1CN(c2cccc(-c3ccc4cnc([C@H](C)NC(=O)c5ccc6c(c5)S(=O)(=O)[C@@H](C)COC6)cc4n3)n2)C[C@H](C)O1 [Compound 325]
(III) O=C(NCc1cc2nc(N3CCCc4ccc(OCC5CC5)nc43)ccc2cn1)c1ccc2c(c1)S(=O)(=O)CCOC2 [Compound 589]
q: Let's sort these by IC50, smallest first. Go ahead? Kindly provide the labels arranged according to the requested ordering.
a: II, I, III

Sourced from patent US20230416248A1
